# key: entry, value: half-life
experiment: Half life in human liver microsomes by HPLC/MS/MS analysis; format: ADME, Microsome
Note: unit min is implicit; provide only the numeric part.

Below, 5 compounds whose answers are already recorded.
>  <compound>
Cc1cc(F)ccc1C1CCN(CCC(=O)N2c3ccccc3C[C@H]2C(=O)N(C)C)CC1

>  <half-life / min>
43

$$$$
>  <compound>
CN(C)C(=O)[C@@H]1Cc2ccccc2N1C(=O)CCN1CCC(c2ccc(F)cc2)CC1

>  <half-life / min>
82

$$$$
>  <compound>
Cc1cccc(C)c1C1CCN(CCC(=O)N2c3ccccc3C[C@H]2C(=O)N(C)C)CC1

>  <half-life / min>
19

$$$$
>  <compound>
CN(C)C(=O)[C@@H]1Cc2ccccc2N1C(=O)CCN1CCC(c2ccccc2)CC1

>  <half-life / min>
55

$$$$
>  <compound>
CN(C)C(=O)[C@@H]1Cc2ccccc2N1C(=O)CCN1CC2CCC(C1)C2c1ccccc1 (stereo partly specified)

>  <half-life / min>
10

$$$$

Continue with the compound presented below.
Challenge: Indicate the recorded half-life value for this compound: `Cc1ccccc1C1CCN(CCC(=O)N2c3ccccc3C[C@H]2C(=O)N(C)C)CC1`
Response given: 24

---

Ratio Ki values, listed per item
species on record: Homo sapiens; test: Selectivity ratio of Ki for human recombinant MOP receptor to Ki for human recombinant ORL1 receptor

Example cases with answers are listed next.
>  <compound>
CN(C)C(=O)[C@@H]1Cc2ccccc2N1C(=O)CCN1CCC(c2ccccc2)CC1

>  <Ratio Ki>
5.9

$$$$
>  <compound>
Cc1ccccc1C1CCN(CCC(=O)N2c3ccccc3CC2C(=O)N(C)C)CC1 (racemic)

>  <Ratio Ki>
25

$$$$
>  <compound>
Cc1cccc(C)c1C1CCN(CCC(=O)N2c3ccccc3C[C@H]2C(=O)N(C)C)CC1

>  <Ratio Ki>
86

$$$$
>  <compound>
Cc1ccccc1C1CCN(CCC(=O)N2c3ccccc3C[C@H]2C(=O)N(C)C)CC1

>  <Ratio Ki>
22

$$$$

Challenge: Please report the measured Ratio Ki for Cc1ccccc1N1CCN(CCC(=O)N2c3ccccc3CC2C(=O)N(C)C)CC1 (racemic)
Response given: 27

Challenge: Quick one: give measured Ratio Ki for CN(C)C(=O)C1Cc2ccccc2N1C(=O)CCN1CCC(c2ccccc2)CC1 (racemic)
Response given: 19

Challenge: Provide one value: measured Ratio Ki of CCOc1ccccc1N1CCN(CCC(=O)N2c3ccccc3CC2C(=O)N(C)C)CC1 (racemic)
Response given: 0.23

---

target: Nociceptin receptor (Homo sapiens, UniProt P41146); assay: Displacement of [3H]N/OFQ from human recombinant ORL1 receptor expressed in HEK293 cells after 45 mins by scintillation proximity assay
Sequence (P41146 whole entry): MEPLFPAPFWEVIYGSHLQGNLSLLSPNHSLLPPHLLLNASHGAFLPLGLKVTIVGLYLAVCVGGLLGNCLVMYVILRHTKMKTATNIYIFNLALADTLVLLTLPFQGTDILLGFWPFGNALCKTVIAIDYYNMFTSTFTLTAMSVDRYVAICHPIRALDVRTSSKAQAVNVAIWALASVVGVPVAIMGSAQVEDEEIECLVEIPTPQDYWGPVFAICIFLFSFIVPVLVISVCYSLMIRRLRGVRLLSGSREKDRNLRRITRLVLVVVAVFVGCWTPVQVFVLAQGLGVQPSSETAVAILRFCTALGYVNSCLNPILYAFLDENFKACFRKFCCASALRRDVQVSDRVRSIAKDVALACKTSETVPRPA
test readout: log10 Ki (log10 of the value in nM)
Plainly stated, the numbers are log10 of Ki given in nM.

Some solved entries appear below for comparison.
>  <compound>
Cc1ccccc1C1CCN(CCC(=O)N2c3ccccc3C[C@H]2C(=O)N(C)C)CC1

>  <test readout>
log10 Ki

>  <experimental result>
0.48

$$$$
>  <compound>
CCOc1ccccc1N1CCN(CCC(=O)N2c3ccccc3CC2C(=O)N(C)C)CC1 (racemic)

>  <test readout>
log10 Ki

>  <experimental result>
2.11

$$$$
>  <compound>
CCC(CC)N1CCN(CCC(=O)N2c3ccccc3CC2C(=O)N(C)C)CC1 (racemic)

>  <test readout>
log10 Ki

>  <experimental result>
2.00

$$$$

Challenge: Answer with reported log10 Ki of CN(C)C(=O)C1Cc2ccccc2N1C(=O)CCN1CCC(c2ccccc2)CC1 (racemic)
Response given: 1.42

Challenge: Please give measured log10 Ki of the following entry: CN(C)C(=O)C1Cc2ccccc2N1C(=O)CCN1CCC(c2ccccc2F)CC1 (racemic)
Response given: 1.42

Challenge: // fetch log10 Ki given entry Cc1ccccc1N1CCN(CCC(=O)N2c3ccccc3CC2C(=O)N(C)C)CC1 (racemic)
Response given: 1.06

Challenge: Fill in log10 Ki for record Cc1ccccc1C1CCN(CCC(=O)N2c3ccccc3CC2C(=O)N(C)C)CC1 (racemic)
Response given: 0.74

Challenge: Give log10 Ki for `Cc1cccc(C)c1C1CCN(CCC(=O)N2c3ccccc3C[C@H]2C(=O)N(C)C)CC1`
Response given: -0.02

---

Listed below: inhibition values for each entry.
target: Nociceptin receptor (Homo sapiens); assay: Displacement of [3H]N/OFQ from human recombinant ORL1 receptor expressed in HEK293 cells at 1 uM after 45 mins by scintillation proximity assay; type: cell-based

// worked examples, inhibition included
>  <compound>
CN(C)C(=O)C1Cc2ccccc2N1C(=O)CCN1CC[C@@H]2c3ccccc3CC[C@@H]2C1 (mixture of isomers)

>  <test system>
Nociceptin receptor (Homo sapiens)

>  <inhibition>
33%

$$$$
>  <compound>
CN(C)C(=O)C1Cc2ccccc2N1C(=O)CCN1CCN(C2CCCCC2)CC1 (racemic)

>  <test system>
Nociceptin receptor (Homo sapiens)

>  <inhibition>
11%

$$$$
>  <compound>
CN(C)C(=O)C1Cc2ccccc2N1C(=O)CCN1Cc2ccccc2C1 (racemic)

>  <test system>
Nociceptin receptor (Homo sapiens)

>  <inhibition>
16%

$$$$
>  <compound>
CN(C)C(=O)C1Cc2ccccc2N1C(=O)CCN1CCCC(c2ccccc2)CC1 (racemic)

>  <test system>
Nociceptin receptor (Homo sapiens)

>  <inhibition>
15%

$$$$
>  <compound>
CC(c1ccccc1)N1CCN(CCC(=O)N2c3ccccc3CC2C(=O)N(C)C)CC1 (racemic)

>  <test system>
Nociceptin receptor (Homo sapiens)

>  <inhibition>
21%

$$$$
>  <compound>
CN(C)C(=O)C1Cc2ccccc2N1C(=O)CCN1CCN(C2CCCCCCC2)CC1 (racemic)

>  <test system>
Nociceptin receptor (Homo sapiens)

>  <inhibition>
12%

$$$$

Next compound, please.
Challenge: Return inhibition (reported value) for this compound: Cc1ccc(N2CCN(CCC(=O)N3c4ccccc4CC3C(=O)N(C)C)CC2)c(C)c1 (racemic)
Response given: 25%

---

IC50 by entry:
biological target: Nociceptin receptor (Homo sapiens); experiment: Antagonist activity at human recombinant ORL1 receptor expressed in HEK293 cells assessed as inhibition of N/OFQ-induced [35S]GTPgammaS binding to alpha-unit of G-protein after 1.5 hrs by scintillation counting
Expressed in nM, but write only the number.

Solved cases below.
>  <molecule>
Cc1ccccc1C1CCN(CCC(=O)N2c3ccccc3C[C@H]2C(=O)N(C)C)CC1

>  <test readout>
IC50

>  <experimental result>
44

$$$$
>  <molecule>
CN(C)C(=O)[C@@H]1Cc2ccccc2N1C(=O)CCN1CCC(c2ccc(F)cc2)CC1

>  <test readout>
IC50

>  <experimental result>
107

$$$$

Now look at this entry.
Challenge: Read the entry CN(C)C(=O)C1Cc2ccccc2N1C(=O)CCN1CCC(c2ccccc2)CC1 (racemic) and write its reported IC50.
Response given: 2300

---

pKi overview
target: Mu-type opioid receptor (Homo sapiens, UniProt P35372); experiment: Displacement of [3H]DAMGO from human recombinant MOP receptor expressed in CHO-K1 cells after 45 mins by scintillation proximity assay
Sequence (P35372 whole entry): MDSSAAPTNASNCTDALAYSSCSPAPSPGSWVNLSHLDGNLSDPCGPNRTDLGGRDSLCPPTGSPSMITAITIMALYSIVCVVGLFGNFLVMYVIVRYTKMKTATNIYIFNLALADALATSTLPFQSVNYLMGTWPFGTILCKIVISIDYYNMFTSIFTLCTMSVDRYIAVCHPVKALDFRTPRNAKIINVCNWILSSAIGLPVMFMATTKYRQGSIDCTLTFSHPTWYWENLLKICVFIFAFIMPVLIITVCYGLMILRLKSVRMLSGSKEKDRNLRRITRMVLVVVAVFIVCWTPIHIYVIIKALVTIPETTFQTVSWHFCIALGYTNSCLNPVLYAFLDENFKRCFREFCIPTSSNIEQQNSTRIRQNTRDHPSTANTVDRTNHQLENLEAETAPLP
For clarity, pKi is expressed as the negative log10 of concentration in mol/L.

Worked cases, answers included:
>  <compound>
Cc1ccccc1N1CCN(CCC(=O)N2c3ccccc3CC2C(=O)N(C)C)CC1 (racemic)

>  <test system>
Mu-type opioid receptor (Homo sapiens, UniProt P35372)

>  <pKi>
6.50

$$$$
>  <compound>
CN(C)C(=O)C1Cc2ccccc2N1C(=O)CCN1CCC(c2ccccc2)CC1 (racemic)

>  <test system>
Mu-type opioid receptor (Homo sapiens, UniProt P35372)

>  <pKi>
6.30

$$$$
>  <compound>
CN(C)C(=O)[C@@H]1Cc2ccccc2N1C(=O)CCN1CCC(c2ccc(F)cc2)CC1

>  <test system>
Mu-type opioid receptor (Homo sapiens, UniProt P35372)

>  <pKi>
6.62

$$$$
>  <compound>
Cc1cc(F)ccc1C1CCN(CCC(=O)N2c3ccccc3C[C@H]2C(=O)N(C)C)CC1

>  <test system>
Mu-type opioid receptor (Homo sapiens, UniProt P35372)

>  <pKi>
6.86

$$$$
>  <compound>
CCOc1ccccc1N1CCN(CCC(=O)N2c3ccccc3CC2C(=O)N(C)C)CC1 (racemic)

>  <test system>
Mu-type opioid receptor (Homo sapiens, UniProt P35372)

>  <pKi>
7.53

$$$$
>  <compound>
Cc1cccc(C)c1C1CCN(CCC(=O)N2c3ccccc3C[C@H]2C(=O)N(C)C)CC1

>  <test system>
Mu-type opioid receptor (Homo sapiens, UniProt P35372)

>  <pKi>
7.09

$$$$

Let us move to another entry and its pKi.
Challenge: Param request: pKi | system Mu-type opioid receptor (Homo sapiens, UniProt P35372) | item CN(C)C(=O)C1Cc2ccccc2N1C(=O)CCN1CCN(c2cnccn2)CC1 (racemic)
Response given: 6.63

---

target: Nociceptin receptor (Homo sapiens, UniProt P41146); experiment: Displacement of [3H]N/OFQ from human recombinant ORL1 receptor expressed in HEK293 cells at 1 uM after 45 mins by scintillation proximity assay; format: cell-based
test readout: inhibition

Solved entries:
>  <molecule>
CN(C)C(=O)C1Cc2ccccc2N1C(=O)CCN1CCN(C2CCCC2)CC1 (racemic)

>  <experimental result>
3%

$$$$
>  <molecule>
CN(C)C(=O)C1Cc2ccccc2N1C(=O)CCN1CCN(c2cnccn2)CC1 (racemic)

>  <experimental result>
37%

$$$$
>  <molecule>
CN(C)C(=O)C1Cc2ccccc2N1C(=O)CCN1CCN(C2CCCCCC2)CC1 (racemic)

>  <experimental result>
12%

$$$$

Consider the record given below.
Challenge: Dear colleague, please send me the reported inhibition for CN(C)C(=O)C1Cc2ccccc2N1C(=O)CCN1Cc2cccc3cccc(c23)C1 (racemic) when you can.
Response given: 15%
